assay.explanation: Cytotoxicity evaluation, CellTiter-Blue Cell Viability Assay
protocol.conditions: human
assay.readout: CC50 at 72 h

Asked: Param item = CC(C)OC(=O)[C@@H](C)NP(=S)(OC[C@H]1O[C@@H](n2ccc(=O)[nH]c2=O)[C@H](O)[C@@H]1CO)Oc1ccccc1 (single isomer, unassigned) [Compound 122a Diastereomer 1] ; retrieve measured CC50 at 72 h.
Given back: > 50 µM

* * *

assay.explanation: in vitro
protocol.conditions: human
assay.readout: CC50

# compound, assay.readout, observed.result
measured = [
    ("O=c1ccn([C@@H]2O[C@H](CO)[C@@H](CO)[C@H]2O)c(=O)[nH]1", "CC50", "> 50 µM"),
    ("CC(C)(CO)C(=O)SCCOP1(=O)OC[C@H]2[C@@H](O)[C@H](n3ccc(=O)[nH]c3=O)O[C@@H]2CO1 (mixture of isomers) [Compound 109 (Mixture of diastereomers)]", "CC50", "> 50 µM"),
    ("C[C@@H](NP(=O)(OC[C@H]1O[C@@H](n2ccc(=O)[nH]c2=O)[C@H](O)[C@@H]1CO)Oc1ccccc1)C(=O)OCc1ccccc1 (single isomer, unassigned) [Compound 123a Diastereomer 1]", "CC50", "> 50 µM"),
    ("CC(C)(C)C(=O)SCCOP(=O)(OCCSC(=O)C(C)(C)C)OC[C@H]1O[C@@H](n2cnc3c(=O)[nH]c(N)nc32)[C@H](O)[C@@H]1CO", "CC50", "> 50 µM"),
    ("Nc1ccn([C@@H]2O[C@H](CO)[C@@H](CO)[C@H]2O)c(=O)n1", "CC50", "> 50 µM"),
    ("CC(=O)OC[C@H]1[C@@H](OC(C)=O)[C@H](n2ccc(=O)[nH]c2=O)O[C@@H]1CO", "CC50", "> 50 µM"),
    ("CCOC(=O)OC(C)OP(=O)(N[C@H](C(=O)OC)C(C)C)OC[C@H]1O[C@@H](n2cnc3c(OCC)nc(N)nc32)[C@H](O)[C@@H]1CF (mixture of isomers) [Compound 128a Mixture of diastereomers]", "CC50", "> 50 µM"),
    ("CC(C)OC(=O)CCCOP(=O)(O)OC[C@H]1O[C@@H](n2ccc(=O)[nH]c2=O)[C@H](O)[C@@H]1CO", "CC50", "> 50 µM"),
]

State recorded CC50 for all listed compounds.
1. CC(=O)OC[C@H]1[C@@H](OC(C)=O)[C@H](n2ccc(N)nc2=O)O[C@@H]1CO
2. CCOc1nc(N)nc2c1ncn2[C@@H]1O[C@H](COP(=O)(N[C@H](C)C(=O)OC(C)C)Oc2ccccc2)[C@@H](CF)[C@H]1O (single isomer, unassigned) [Compound 125a Diastereomer 1]
3. O=c1ccn([C@@H]2O[C@@H]3COP(=O)(O)OC[C@H]3[C@H]2O)c(=O)[nH]1
4. Nc1ncnc2c1ncn2[C@@H]1O[C@H](CO)[C@@H](CF)[C@H]1O

Given back:
["> 50 µM", "> 50 µM", "> 50 µM", "> 50 µM"]
